// data source = ChEMBL document CHEMBL5291721

# measured_on: Glutamate receptor ionotropic, NMDA 1 (Rattus norvegicus)
attribute_measured: AC50

>>> recorded_result("CN(C)c1cc(CNCC(C)(C)C)c(O)c2c1C[C@H]1C[C@H]3[C@H](N(C)C)C(O)=C(C(N)=O)C(=O)[C@@]3(O)C(O)=C1C2=O")
"> 30 µM"
>>> recorded_result("CCCCCCNC(=O)n1cc(F)c(=O)[nH]c1=O")
"> 30 µM"
>>> recorded_result("C[n+]1ccccc1/C=N/O")
"> 30 µM"
>>> recorded_result("O=C1CN=C(c2ccccc2)c2cc(Cl)ccc2N1")
"> 10 µM"
>>> recorded_result("O=C(CCCN1CCC2(CC1)C(=O)NCN2c1ccccc1)c1ccc(F)cc1")
"> 30 µM"
>>> recorded_result("CN1c2ccccc2C(NCCCCCCC(=O)O)c2ccc(Cl)cc2S1(=O)=O (stereo unspecified)")
"> 30 µM"
>>> recorded_result("CCn1cc(C(=O)O)c(=O)c2cc(F)c(N3CCN(C)CC3)cc21")
"> 30 µM"
>>> recorded_result("Cc1ccc(=O)n(-c2ccccc2)c1")
"> 30 µM"
>>> recorded_result("NS(=O)(=O)c1cc(C2(O)NC(=O)c3ccccc32)ccc1Cl (stereo unspecified)")
"> 10 µM"
>>> recorded_result("Nc1ccn([C@@H]2O[C@H](CO)[C@@H](O)C2(F)F)c(=O)n1")
"> 10 µM"
>>> recorded_result("CCC(C)(Oc1ccc(C2(c3ccc(OC(C)(CC)C(=O)O)cc3)CCCCC2)cc1)C(=O)O (stereo unspecified) [CLINOFIBRATE]")
"> 30 µM"
>>> recorded_result("C[C@]12CC[C@H](O)CC1=CC[C@@H]1[C@@H]2CC[C@]2(C)C(c3cccnc3)=CC[C@@H]12")
"> 10 µM"
>>> recorded_result("CO/N=C(\\C(=O)N[C@@H]1C(=O)N2C(C(=O)[O-])=C(C[n+]3cccc4c3CCC4)CS[C@H]12)c1csc(N)n1")
"> 30 µM"
>>> recorded_result("CC1(C)S[C@@H]2[C@H](NC(=O)[C@H](N)c3ccc(O)cc3)C(=O)N2[C@H]1C(=O)O")
"> 30 µM"
>>> recorded_result("CC(C)OC(=O)C(C(=O)OC(C)C)=C1SC=CS1 [MALOTILATE]")
"> 30 µM"
>>> recorded_result("CO[C@@]1(NC(=O)Cc2cccs2)C(=O)N2C(C(=O)O)=C(COC(N)=O)CS[C@@H]21")
"> 30 µM"
>>> recorded_result("CCCCC1(CC)C(=O)NC(=O)NC1=O")
"> 30 µM"
>>> recorded_result("NCCCC(O)(P(=O)(O)O)P(=O)(O)O")
"> 10 µM"
>>> recorded_result("COc1ccnc(C[S+]([O-])c2nc3ccc(OC(F)F)cc3[nH]2)c1OC (stereo unspecified)")
"> 10 µM"
>>> recorded_result("CCc1oc2ccccc2c1C(=O)c1cc(Br)c(O)c(Br)c1")
"> 10 µM"
>>> recorded_result("CS(=O)(=O)OCCCCOS(C)(=O)=O")
"> 30 µM"
>>> recorded_result("COc1cccc2c1C(=O)c1c(O)c3c(c(O)c1C2=O)C[C@@](O)(C(C)=O)C[C@@H]3O[C@H]1C[C@H](N)[C@H](O)[C@H](C)O1")
"> 30 µM"
>>> recorded_result("NS(=O)(=O)c1cc(C(=O)O)cc(N2CCCC2)c1Oc1ccccc1 [PIRETANIDE]")
"> 30 µM"
>>> recorded_result("CO[C@@]1(NC(=O)CSCC#N)C(=O)N2C(C(=O)O)=C(CSc3nnnn3C)CS[C@@H]21")
"> 30 µM"
>>> recorded_result("CC1(C)C(C=C(Cl)Cl)C1C(=O)OCc1cccc(Oc2ccccc2)c1 (stereo unspecified)")
"> 10 µM"
>>> recorded_result("CCN(CC)CC(=O)Oc1ccc(NC(C)=O)cc1")
"> 30 µM"
>>> recorded_result("C[C@@H]1CCC[C@H](C)N1NC(=O)c1ccc(Cl)c(S(N)(=O)=O)c1 [CLOPAMIDE]")
"> 30 µM"
>>> recorded_result("CCCCNc1ccc(C(=O)OCCN(C)C)cc1")
"> 10 µM"
>>> recorded_result("CCCC(C)(COC(N)=O)COC(=O)NC(C)C (stereo unspecified)")
"> 10 µM"
>>> recorded_result("CCCNC(C)C(=O)Nc1ccccc1C (stereo unspecified)")
"21 µM"
>>> recorded_result("CNCCCC1c2ccccc2C=Cc2ccccc21")
"> 10 µM"
>>> recorded_result("CNC(=O)Oc1ccc2c(c1)[C@]1(C)CCN(C)[C@@H]1N2C")
"> 30 µM"
>>> recorded_result("Cc1cc(CC(=O)O)n(C)c1C(=O)c1ccc(Cl)cc1 [ZOMEPIRAC]")
"> 30 µM"
>>> recorded_result("O=C1Nc2ccc(Cl)cc2C(c2ccccc2)=NC1O (stereo unspecified)")
"> 10 µM"
>>> recorded_result("COC1=C(OC)C(=O)C(CCCCCCCCCCO)=C(C)C1=O")
"> 10 µM"
>>> recorded_result("CN1CCN(c2c(F)cc3c(=O)c(C(=O)O)cn4c3c2SCC4)CC1")
"> 30 µM"
